Measured glycan array binding signal (z-score) of individual entries
SYSTEM NAME: Neu5Ac(a2-8)Neu5Ac(a2-3)[Gal(b1-3)GalNAc(b1-4)]Gal(b1-4)Glc
ASSAY NAME: glycan array binding signal (z-score within array); higher = stronger binding
MEASUREMENT CONDITIONS: glycan notation: IUPAC condensed, linker removed
Only a selection was taken, and the strongest signals are over-represented in it overall.
Answer with the value's number alone.

Some binders with known glycan array binding signal (z-score) results, for comparison:
BINDER | glycan array binding signal (z-score)
XTP3-B-MRH1 (Homo sapiens), Q96DZ1 (protein) LLEPLFKQSSCSYRIESYWTYEVCHGKHIRQYHEEKETGQKINIHEYYLGNMLAKNLLFEKEREAEEKEKSNEIPTKNIEGQMTPYYPVGMGNGTPCSLKQNRPRSSTVMYICHPESKHEILSVAEVTTCEYEVVILTPLLCSHPKYRFRA | 2.49
Nictaba (Nicotiana tabacum), Q94EW1 (protein) MQGQWIAARDLSITWVDNPQYWTWKTVDPNIEVAELRRVAWLDIYGKIETKNLIRKTSYAVYLVFKLTDNPRELERATASLRFVNEVAEGAGIEGTTVFISKKKKLPGELGRFPHLRSDGWLEIKLGEFFNNLGEDGEVEMRLMEINDKTWKSGIIVKGFDIRPN | -0.3
Intelectin 1 (Homo sapiens), Q8WWA0 (protein) MNQLSFLLFLIATTRGWSTDEANTYFKEWTCSSSPSLPRSCKEIKDECPSAFDGLYFLRTENGVIYQTFCDMTSGGGGWTLVASVHENDMRGKCTVGDRWSSQQGSKAVYPEGDGNWANYNTFGSAEAATSDDYKNPGYYDIQAKDLGIWHVPNKSPMQHWRNSSLLRYRTDTGFLQTLGHNLFGIYQKYPVKYGEGKCWTDNGPVIPVVYDFGDAQKTASYYSPYGQREFTAGFVQFRVFNNERAANALCAGMRVTGCNTEHHCIGGGGYFPEASPQQCGDFSGFDWSGYGTHVGYSSSREITEAAVLLFYR | 0.572
CVN (Nostoc ellipsosporum), P81180 (protein) LGKFSQTCYNSAIQGSVLTSTCERTNGGYNTSSIDLNSVIENVDGSLKWQPSNFIETCRNTQLAGSSELAAECKTRAQQFVSTKINLDDHIANIDGTLKYE | -0.246

// switching to the query binder
Q: Which value of glycan array binding signal (z-score) has been reported for Gal 8 (Homo sapiens) (protein) MLSLNNLQNIIYNPVIPYVGTIPDQLDPGTLIVICGHVPSDADRFQVDLQNGSSVKPRADVAFHFNPRFKRAGCIVCNTLINEKWGREEITYDTPFKREKSFEIVIMVLKDKFQVAVNGKHTLLYGHRIGPEKIDTLGIYGKVNIHSIGFSFSSDLQSTQASSLELTEISRENVPKSGTPQLQTVSPSWDLQGHGSETFCSVLWTRVFLEIAFCRPIGLTVASFQSLPFAARLNTPMGPGRTVVVKGEVNANAKSFNVDLLAGKSKDIALHLNPRLNIKAFVRNSFLQESWGEEERNITSFPFSPGMYFEMIIYCDVREFKVAVNGVHSLEYKHRFKELSSIDTLEINGDIHLLEVRSW in the records?
Ans: -0.355
